TARGET: MspA-PBA (boronic acid appended hetero-octameric MspA) (Mycolicibacterium smegmatis, UniProt A0QR29, D117C/D118N/D120N/D145R/D161R/E166K)
Construct: H6 (hexa-histidine) (C); 3-(maleimide) phenylboronic acid (MPBA) adduct on the thiol of Cys90; made in house; host or cells: E. coli BL21 (DE3) pLysS, co-expression from pETDuet-1
Sequence (A0QR29 other isoform, or with tags, fused parts or gaps D117N/D118N/D120N/D145R/D161R/E166K): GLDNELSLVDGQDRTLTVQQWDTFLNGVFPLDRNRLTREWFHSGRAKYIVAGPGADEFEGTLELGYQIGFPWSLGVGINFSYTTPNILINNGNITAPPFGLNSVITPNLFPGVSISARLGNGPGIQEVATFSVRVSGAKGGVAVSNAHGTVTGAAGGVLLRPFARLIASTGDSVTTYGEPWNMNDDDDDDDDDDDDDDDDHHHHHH
Sequence (A0QR29 other isoform, or with tags, fused parts or gaps D117C/D118N/D120N/D145R/D161R/E166K): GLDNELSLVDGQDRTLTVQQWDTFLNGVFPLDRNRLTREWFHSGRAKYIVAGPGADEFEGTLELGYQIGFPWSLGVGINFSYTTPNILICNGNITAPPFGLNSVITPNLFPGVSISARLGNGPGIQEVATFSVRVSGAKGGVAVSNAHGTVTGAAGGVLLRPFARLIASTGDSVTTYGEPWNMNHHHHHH
TEST DETAILS: Single channel recording of alditol binding to MspA-PBA nanopore (standards and zero-sugar drinks)
Set-up: species or system Mycobacterium smegmatis
CONDITION DETAILS: +100 mV, alditol 4 mM (glycerol 8 mM) in cis, N=3
QUANTITY KIND: std (standard deviation of the blocking level) (pA)
Answers are plain numbers, in pA.

Recorded std (standard deviation of the blocking level), per entry:
> print(dat)
                            smiles.record  test.result
1  OC[C@@H](O)[C@H](O)[C@@H](O)[C@H](O)CO         6.64
2         OC[C@@H](O)[C@@H](O)[C@@H](O)CO         3.83
3               OC[C@@H](O)C(O)[C@H](O)CO         4.71
4  OC[C@@H](O)[C@H](O)[C@H](O)[C@@H](O)CO         5.22
5  OC[C@@H](O)[C@@H](O)[C@H](O)[C@H](O)CO         3.09

Please give std (standard deviation of the blocking level) for each item listed below.
1. OC[C@@H](O)[C@@H](O)CO
2. OC[C@@H](O)[C@@H](O)[C@H](O)[C@@H](O)CO

[3.24, 5.30]
